Molecular target: PRMT5 (Homo sapiens)
Construct: purchased Viva (custom protein)
Test: PRMT5 biochemical IC50 assay with no cofactor
Conditions: PRMT5, no cofactor; read-out: No Cofactor/rel IC50
pIC50: −log10 of the molar value.
quantity-measured: pIC50

Recorded pIC50, per entry:
{"molecule": "CCc1cc(NC(=O)C(=O)N2C[C@@H](C)CC[C@@H]2c2ccc(N3CCN(C)CC3)cc2)cnc1N (racemic)", "measured-on": "PRMT5 (Homo sapiens)", "quantity-measured": "pIC50", "result": "6.30 to 7.30"}
{"molecule": "COc1ncc(NC(=O)C(=O)N2C[C@H](C)CC[C@H]2c2ccc3c(c2)CNC3=O)cc1C(N)=O (single isomer, unassigned)", "measured-on": "PRMT5 (Homo sapiens)", "quantity-measured": "pIC50", "result": "6.30 to 7.30"}
{"molecule": "COc1ncc(NC(=O)C(=O)N2C[C@@H](C)CC[C@@H]2c2ccc3sc(C4(CN(C)C)COC4)nc3c2)cc1C(N)=O", "measured-on": "PRMT5 (Homo sapiens)", "quantity-measured": "pIC50", "result": "> 7.30"}
{"molecule": "C[C@@H]1CC[C@@H](c2ccc(F)cc2)N(C(=O)C(=O)Nc2cnc(OC(F)F)c(C(N)=O)c2)C1 (racemic)", "measured-on": "PRMT5 (Homo sapiens)", "quantity-measured": "pIC50", "result": "6.30 to 7.30"}
{"molecule": "Cc1cc(NC(=O)C(=O)N2CCCCC2C23CC(C(F)(F)F)(C2)C3)cnc1N (stereo not drawn)", "measured-on": "PRMT5 (Homo sapiens)", "quantity-measured": "pIC50", "result": "< 6.30"}

--- query ---
IN: GET /values?readout=pIC50&item= Cc1cc([C@H]2CC[C@H](C)CN2C(=O)C(=O)Nc2cncc(C(N)=O)c2)ccc1F (single isomer, unassigned)
OUT: 6.30 to 7.30

---

Biological target: PRMT5 (Homo sapiens)
Construct: purchased Viva (custom protein)
Test: PRMT5 biochemical IC50 assay with MTA as cofactor
Conditions: PRMT5, MTA as cofactor; read-out: MTA IC50
quantity-measured: IC50

Recorded IC50, per entry:
{"molecule": "CCc1cc(NC(=O)C(=O)N2C[C@@H](C)[C@@H](OC)C[C@@H]2c2ccc3scnc3c2)cnc1N (single isomer, unassigned)", "IC50": "< 50 nM"}
{"molecule": "CCc1cc(NC(=O)C(=O)N2CC(C)CCC2c2ccc(N3CCC4C(CCCN4C)C3)cc2)cnc1N (single isomer, unassigned) [Compound 1132]", "IC50": "< 50 nM"}

--- query ---
IN: GET /values?readout=IC50&item= C[C@@H]1CC[C@@H](c2ccc3sc(CCN(C)C)nc3c2)N(C(=O)C(=O)Nc2cnc(N)c(C3CC3)c2)C1 (single isomer, unassigned)
OUT: < 50 nM

---

Target: PRMT5 (Homo sapiens, UniProt O14744)
Construct: purchased Viva (custom protein)
Sequence (O14744 whole entry): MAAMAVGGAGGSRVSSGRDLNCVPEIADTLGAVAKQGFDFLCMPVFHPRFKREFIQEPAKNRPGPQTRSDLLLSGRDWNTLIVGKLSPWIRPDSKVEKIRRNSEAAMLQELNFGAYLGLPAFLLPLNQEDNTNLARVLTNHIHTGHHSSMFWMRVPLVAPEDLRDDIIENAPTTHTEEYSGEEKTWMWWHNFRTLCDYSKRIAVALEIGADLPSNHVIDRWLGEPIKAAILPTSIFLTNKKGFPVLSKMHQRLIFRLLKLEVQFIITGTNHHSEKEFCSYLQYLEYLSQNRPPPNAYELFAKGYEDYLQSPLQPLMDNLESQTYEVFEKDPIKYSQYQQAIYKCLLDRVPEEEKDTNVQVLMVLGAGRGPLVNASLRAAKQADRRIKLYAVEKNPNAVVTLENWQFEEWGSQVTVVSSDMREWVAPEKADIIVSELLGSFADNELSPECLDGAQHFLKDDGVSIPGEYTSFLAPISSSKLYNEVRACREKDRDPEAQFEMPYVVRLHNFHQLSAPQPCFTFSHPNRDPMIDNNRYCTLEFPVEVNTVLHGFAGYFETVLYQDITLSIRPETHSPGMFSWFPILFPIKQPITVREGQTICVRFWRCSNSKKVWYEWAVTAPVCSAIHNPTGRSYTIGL
Sequence (Q9BQA1 whole entry partner): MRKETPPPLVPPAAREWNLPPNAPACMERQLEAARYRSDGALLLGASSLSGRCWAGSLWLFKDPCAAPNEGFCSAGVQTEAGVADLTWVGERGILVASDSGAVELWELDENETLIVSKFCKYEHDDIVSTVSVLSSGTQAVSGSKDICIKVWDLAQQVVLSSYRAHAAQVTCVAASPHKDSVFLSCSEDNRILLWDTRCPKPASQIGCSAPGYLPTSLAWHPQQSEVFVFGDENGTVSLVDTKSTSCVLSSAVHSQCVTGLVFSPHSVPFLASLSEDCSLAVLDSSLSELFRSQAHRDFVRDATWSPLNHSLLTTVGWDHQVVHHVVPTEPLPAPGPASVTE
Assay: PRMT5 biochemical IC50 assay with MTA as cofactor
Details: PRMT5, MTA as cofactor; read-out: MTA IC50
Each record here notes measured IC50.

Recorded IC50, per entry:
{"compound": "Cc1cc([C@@H]2CC[C@@H](C)CN2C(=O)C(=O)Nc2cncc(C(N)=O)c2)ccc1Cl (racemic) [Compound 173]", "result": "< 50 nM"}
{"compound": "CNc1nc2cc([C@@H]3CC[C@@H](C)CN3C(=O)C(=O)Nc3cncc(C(N)=O)c3)ccc2s1 (single isomer, unassigned) [Compound 877]", "result": "< 50 nM"}
{"compound": "COc1ncc(NC(=O)C(=O)N2C[C@H](C)CC[C@H]2c2ccc(N)nc2)cc1C(N)=O (single isomer, unassigned) [Compound 471]", "result": "> 500 nM"}
{"compound": "Cc1cc(NC(=O)C(=O)N2C[C@H](C)CC[C@H]2c2cncnc2)cnc1N (racemic) [Compound 109]", "result": "50 to 500 nM"}
{"compound": "CC(=O)N1CCCC([C@@H]2CC[C@@H](C)CN2C(=O)C(=O)Nc2cnc(N)c(C)c2)C1 (mixture of isomers) [Compound 757]", "result": "50 to 500 nM"}

IN: GET /values?readout=IC50&item= C[C@@H]1CC[C@@H](c2cccc(Cl)c2)N(C(=O)C(=O)Nc2cnc(N)c(C3CC3)c2)C1 (single isomer, unassigned) [Compound 1169]
OUT: 50 to 500 nM

IN: GET /values?readout=IC50&item= COc1ncc(NC(=O)C(=O)N2C[C@@H](C)CC[C@@H]2c2ccc3[nH]ncc3c2)cc1C(N)=O (single isomer, unassigned) [Compound 464]
OUT: < 50 nM

IN: GET /values?readout=IC50&item= [H][C@]1([C@]2([H])C[C@@]3(C[C@H](O)C3)C2)CC[C@H](C)CN1C(=O)C(=O)Nc1cnc(N)c(C)c1 (single isomer, unassigned) [Compound 768]
OUT: 50 to 500 nM

IN: GET /values?readout=IC50&item= Cc1cc(NC(=O)C(=O)N2CCCCC2c2cccc3c2ncn3C)cnc1N (stereo not shown) [Compound 132]
OUT: 50 to 500 nM

IN: GET /values?readout=IC50&item= CCc1cc(NC(=O)C(=O)N2C[C@@H](C)CC[C@@H]2c2cccc(Oc3cc(C)nc(C)c3)c2)cnc1N [Compound 1297]
OUT: < 50 nM

IN: GET /values?readout=IC50&item= Cc1ncc(NC(=O)C(=O)N2C[C@@H](C)CC[C@@H]2c2ccc3sc(C4CCN(C)CC4)nc3c2)cc1Cl [Compound 1102]
OUT: < 50 nM

IN: GET /values?readout=IC50&item= CCc1cc(NC(=O)C(=O)N2C[C@H](C)CC[C@H]2c2ccc(NC)nc2)cnc1N (single isomer, unassigned) [Compound 865]
OUT: < 50 nM

IN: GET /values?readout=IC50&item= Cc1cc(NC(=O)C(=O)N2C[C@H](C)CC[C@H]2c2ccc(-c3nccs3)cc2)cnc1N (single isomer, unassigned) [Compound 816]
OUT: > 500 nM

---

Test system: HAP1 MTAP-deleted cell line
Test: Viability assay, MTAP-deleted cell line
Assay type: cell-based
Details: Homo sapiens, HAP1, viability assay, MTAP-deleted cell line; read-out: HAP1 MTAP deleted viability
Each record here notes measured IC50.

Recorded IC50, per entry:
{"compound": "COc1ncc(NC(=O)C(=O)N2C[C@H](C)CC[C@H]2c2cscn2)cc1C(N)=O (single isomer, unassigned) [Compound 1042]", "measured-on": "HAP1 MTAP-deleted cell line", "quantity-measured": "IC50", "result": "1 to 10 µM"}
{"compound": "C[C@H]1CC[C@H](c2cc[nH]n2)N(C(=O)C(=O)Nc2cncc(C(N)=O)c2)C1 (single isomer, unassigned) [Compound 978]", "measured-on": "HAP1 MTAP-deleted cell line", "quantity-measured": "IC50", "result": "> 10 µM"}
{"compound": "Cc1cc(NC(=O)C(=O)N2C[C@@H](C)CC[C@@H]2c2cc(F)c(F)c(F)c2)cnc1N (single isomer, unassigned) [Compound 487]", "measured-on": "HAP1 MTAP-deleted cell line", "quantity-measured": "IC50", "result": "> 10 µM"}
{"compound": "Cc1cc(NC(=O)C(=O)N2C[C@H](C)CC[C@H]2[C@H]2CC[C@H](O)CC2)cnc1N (single isomer, unassigned) [Compound 431]", "measured-on": "HAP1 MTAP-deleted cell line", "quantity-measured": "IC50", "result": "1 to 10 µM"}
{"compound": "C[C@@H]1CC[C@@H](c2ccc(NS(C)(=O)=O)cc2)N(C(=O)C(=O)Nc2cncc(C(N)=O)c2)C1 (single isomer, unassigned) [Compound 469]", "measured-on": "HAP1 MTAP-deleted cell line", "quantity-measured": "IC50", "result": "> 10 µM"}
{"compound": "C[C@H]1CC[C@H](C2CCC2)N(C(=O)C(=O)Nc2cncc(C(N)=O)c2)C1 (single isomer, unassigned) [Compound 211]", "measured-on": "HAP1 MTAP-deleted cell line", "quantity-measured": "IC50", "result": "1 to 10 µM"}

IN: GET /values?readout=IC50&item= N#C[C@H]1CCN(C(=O)C(=O)Nc2cncc(C(N)=O)c2)[C@@H](c2ccccc2)C1 (single isomer, unassigned) [Compound 352]
OUT: > 10 µM

IN: GET /values?readout=IC50&item= CCN1CCC(c2nc3cc([C@H]4CC[C@H](C)CN4C(=O)C(=O)Nc4cnc(OC)c(C(N)=O)c4)ccc3s2)CC1 [Compound 1164]
OUT: < 1 µM

IN: GET /values?readout=IC50&item= COc1ncc(NC(=O)C(=O)N2C[C@H](C)CC[C@H]2c2ccc(F)cc2)cc1C(N)=O (single isomer, unassigned) [Compound 446]
OUT: 1 to 10 µM

IN: GET /values?readout=IC50&item= Cc1cc(NC(=O)C(=O)N2CCCC[C@H]2C2CCCC2)cnc1N (single isomer, unassigned) [Compound 340]
OUT: 1 to 10 µM

IN: GET /values?readout=IC50&item= CCc1cc(NC(=O)C(=O)N2C[C@@H](C)CC[C@@H]2c2ccc3sc(C(C)(C)N(C)C)nc3c2)cnc1N [Compound 1237]
OUT: < 1 µM

IN: GET /values?readout=IC50&item= CCc1cc(NC(=O)C(=O)N2C[C@H](C)CC[C@H]2c2cc3[nH]ncc3s2)cnc1N (single isomer, unassigned) [Compound 955]
OUT: < 1 µM

IN: GET /values?readout=IC50&item= C[C@@H]1CC[C@@H](c2ccc(Cl)c(F)c2)N(C(=O)C(=O)Nc2cncc(C(N)=O)c2)C1 (racemic) [Compound 327]
OUT: 1 to 10 µM

IN: GET /values?readout=IC50&item= Cc1cc(NC(=O)C(=O)N2C[C@H]3CC[C@H](C3)[C@H]2c2cccs2)cnc1N (single isomer, unassigned) [Compound 134]
OUT: > 10 µM

IN: GET /values?readout=IC50&item= C[C@@H]1CC[C@@H](c2cccc(F)c2)N(C(=O)C(=O)Nc2cncc(C(N)=O)c2)C1 (racemic) [Compound 247]
OUT: 1 to 10 µM
